Measured AC50 on Estrogen receptor (Homo sapiens, UniProt P03372) follows.
Sequence (P03372 whole entry): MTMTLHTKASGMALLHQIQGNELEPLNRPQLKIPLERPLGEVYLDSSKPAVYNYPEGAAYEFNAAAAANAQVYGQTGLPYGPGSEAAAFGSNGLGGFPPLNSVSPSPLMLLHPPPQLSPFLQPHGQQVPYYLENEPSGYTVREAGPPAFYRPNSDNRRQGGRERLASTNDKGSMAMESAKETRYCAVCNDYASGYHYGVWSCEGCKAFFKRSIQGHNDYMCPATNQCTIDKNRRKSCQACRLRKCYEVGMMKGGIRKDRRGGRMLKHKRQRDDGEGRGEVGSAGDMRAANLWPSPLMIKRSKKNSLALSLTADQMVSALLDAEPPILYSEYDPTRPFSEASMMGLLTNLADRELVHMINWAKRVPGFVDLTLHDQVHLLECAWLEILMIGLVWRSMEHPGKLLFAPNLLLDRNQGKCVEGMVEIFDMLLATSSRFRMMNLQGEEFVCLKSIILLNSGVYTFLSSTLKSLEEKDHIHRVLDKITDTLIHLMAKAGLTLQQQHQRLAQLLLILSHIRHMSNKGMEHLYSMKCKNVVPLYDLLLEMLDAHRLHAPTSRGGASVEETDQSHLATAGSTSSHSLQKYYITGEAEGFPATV

Exercise: Can you look up AC50 on Estrogen receptor (Homo sapiens, UniProt P03372) for CN(C)C(=O)OC1N=C(c2ccccc2)c2cc(Cl)ccc2N(C)C1=O (configuration not stated) [CAMAZEPAM] ?
Key: > 30 µM

Exercise: Reported AC50 for Estrogen receptor (Homo sapiens, UniProt P03372), given CN1C(=O)CC(C)(c2ccccc2)C1=O (configuration not stated) [METHSUXIMIDE] ?
Key: > 10 µM

Exercise: Form field: AC50 recorded for CN1CCc2cccc3c2[C@H]1Cc1ccc(O)c(O)c1-3 [APOMORPHINE] with Estrogen receptor (Homo sapiens, UniProt P03372) (enter value)
Key: 1.47 µM

Exercise: Provide value of AC50 for this record tested with Estrogen receptor (Homo sapiens, UniProt P03372): CN1CC(=O)N2[C@H](c3ccc4c(c3)OCO4)c3[nH]c4ccccc4c3C[C@@H]2C1=O
Key: > 30 µM

Exercise: AC50 of CS(=O)(=O)c1ccc([C@@H](O)[C@@H](CO)NC(=O)C(Cl)Cl)cc1 [THIAMPHENICOL] on Estrogen receptor (Homo sapiens, UniProt P03372)?
Key: > 30 µM

Exercise: Which measured AC50 belongs to N[C@@H](C(=O)N[C@@H]1C(=O)N2C(C(=O)O)=C(Cl)CS[C@H]12)c1ccccc1 [CEFACLOR ANHYDROUS] , tested on Estrogen receptor (Homo sapiens, UniProt P03372)?; also: assay procedure not described here
Key: > 30 µM

Exercise: I'm curious: which AC50 was measured for Cc1c(O)c(=O)ccn1C [DEFERIPRONE] tested on Estrogen receptor (Homo sapiens, UniProt P03372)?; also: assay procedure not described here
Key: > 30 µM

----------
measured-on: Adenosine receptor A3 (Homo sapiens, UniProt P0DMS8)
Sequence (P0DMS8 whole entry): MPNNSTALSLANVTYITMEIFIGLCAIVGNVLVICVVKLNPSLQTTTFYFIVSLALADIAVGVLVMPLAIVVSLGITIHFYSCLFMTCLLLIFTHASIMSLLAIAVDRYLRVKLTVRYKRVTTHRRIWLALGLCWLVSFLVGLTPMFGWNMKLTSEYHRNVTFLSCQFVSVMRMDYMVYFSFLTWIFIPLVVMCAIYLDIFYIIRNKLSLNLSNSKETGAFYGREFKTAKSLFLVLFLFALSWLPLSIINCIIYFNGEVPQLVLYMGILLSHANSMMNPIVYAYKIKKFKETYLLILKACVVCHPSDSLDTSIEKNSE
Consider the following compounds; for each one, report its AC50.

Exercise: Requested read-out: AC50. Entry: CC1=NN(c2ccccc2)C(=O)C1
Key: > 30 µM

Exercise: Could you tell me which AC50 is on file for CCCC[N+]1(C)[C@@H]2C[C@@H](OC(=O)[C@H](CO)c3ccccc3)C[C@H]1[C@@H]1O[C@@H]12 (stereo partly drawn) ?
Key: > 30 µM

Exercise: Which value of AC50 has been reported for CC(C)OC(=O)[C@H](C)N[P@](=O)(OC[C@H]1O[C@@H](n2ccc(=O)[nH]c2=O)[C@](C)(F)[C@@H]1O)Oc1ccccc1 in the records?
Key: > 30 µM

----------
measured-on: Voltage-gated inwardly rectifying potassium channel KCNH2 (Homo sapiens, UniProt Q12809)
Sequence (Q12809 whole entry): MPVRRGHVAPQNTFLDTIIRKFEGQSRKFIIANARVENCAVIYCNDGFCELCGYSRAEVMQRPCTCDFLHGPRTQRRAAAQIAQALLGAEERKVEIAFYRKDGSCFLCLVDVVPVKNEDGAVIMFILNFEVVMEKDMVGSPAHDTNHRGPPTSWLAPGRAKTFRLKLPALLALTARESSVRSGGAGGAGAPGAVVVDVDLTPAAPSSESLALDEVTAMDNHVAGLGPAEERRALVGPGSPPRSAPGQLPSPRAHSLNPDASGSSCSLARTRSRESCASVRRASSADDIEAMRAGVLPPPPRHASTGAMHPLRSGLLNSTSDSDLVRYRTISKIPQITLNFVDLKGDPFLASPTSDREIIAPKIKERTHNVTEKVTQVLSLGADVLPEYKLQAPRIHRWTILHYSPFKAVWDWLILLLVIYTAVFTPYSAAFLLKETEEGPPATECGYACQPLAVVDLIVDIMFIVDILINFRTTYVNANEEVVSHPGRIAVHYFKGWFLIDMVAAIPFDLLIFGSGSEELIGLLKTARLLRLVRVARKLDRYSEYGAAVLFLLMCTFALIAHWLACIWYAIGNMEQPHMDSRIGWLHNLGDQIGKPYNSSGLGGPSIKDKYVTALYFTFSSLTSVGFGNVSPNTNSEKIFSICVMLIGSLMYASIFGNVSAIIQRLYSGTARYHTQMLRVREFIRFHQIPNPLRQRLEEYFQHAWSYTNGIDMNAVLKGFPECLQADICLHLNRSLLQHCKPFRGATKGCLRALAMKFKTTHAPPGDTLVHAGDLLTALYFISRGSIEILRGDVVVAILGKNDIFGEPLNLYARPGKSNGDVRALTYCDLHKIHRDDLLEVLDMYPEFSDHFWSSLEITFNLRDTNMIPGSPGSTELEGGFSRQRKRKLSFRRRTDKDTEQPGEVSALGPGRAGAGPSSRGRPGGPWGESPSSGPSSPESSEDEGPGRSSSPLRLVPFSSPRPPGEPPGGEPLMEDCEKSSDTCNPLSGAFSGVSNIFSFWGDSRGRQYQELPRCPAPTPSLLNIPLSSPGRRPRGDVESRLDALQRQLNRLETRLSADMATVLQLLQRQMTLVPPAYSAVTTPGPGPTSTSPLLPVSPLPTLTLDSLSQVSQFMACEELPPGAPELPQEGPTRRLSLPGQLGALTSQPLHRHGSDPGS
Type: functional
condition-label: read-out: AC50; also: assay procedure not described here
Exercise: for every item that follows, state its recorded AC50.

Exercise: So what does the record say about AC50 for CCCC[N+]1(C)[C@@H]2C[C@@H](OC(=O)[C@H](CO)c3ccccc3)C[C@H]1[C@@H]1O[C@@H]12 (stereo partly specified) ?
Key: 2.8 µM

Exercise: Record request: AC50 value, item O=C(COc1ccc(Cl)cc1)N1CCN(Cc2ccc3c(c2)OCO3)CC1 [FIPEXIDE]
Key: 12 µM

Exercise: Entry NS(=O)(=O)c1cc2c(cc1Cl)NC(CC1CCCC1)NS2(=O)=O (stereo unspecified) [CYCLOPENTHIAZIDE] : reported AC50 = ?
Key: > 30 µM

Exercise: # query: AC50 of entry COC(=O)N[C@H](C(=O)N[C@@H](Cc1ccccc1)[C@@H](O)CN(Cc1ccc(-c2ccccn2)cc1)NC(=O)[C@@H](NC(=O)OC)C(C)(C)C)C(C)(C)C
Key: > 30 µM

Exercise: Would you mind telling me what AC50 value was observed for CCN(CC)CCOC(=O)c1ccc(N)cc1 ?
Key: > 30 µM

Exercise: Give the measured AC50 of NS(=O)(=O)c1cc(-c2nnn[nH]2)c(NCc2cccs2)cc1Cl [AZOSEMIDE] .
Key: > 30 µM
